value.type: melting point

Check out these entries, answers already filled in.
CC(C)n1nc(C(F)(F)F)c(CS(=O)(=O)C2=NOC(C)(C)C2)c1OCC(F)F ... 88 to 89 °C
CCn1nc(C(F)(F)F)c(C)c1O ... 150 to 152 °C

The measured melting point associated with CCn1nc(C(F)(F)F)c(CS(=O)(=O)C2=NOC(C)(C)C2)c1OCC(F)(F)F reads 84 to 86 °C

====

value.type: melting point

CC(C)n1nc(C(F)(F)F)c(CS(=O)(=O)C2=NOC(C)(C)C2)c1OCC(F)(F)F ... 109 to 110 °C
Br.CCn1nc(C(F)(F)F)c(CSC(=N)N)c1OC(F)F ... 139 to 141 °C
Cn1nc(C(F)(F)F)c(CS(=O)(=O)C2=NOC(C)(C3CC3)C2)c1OC(F)F (centres unmarked) ... 96 to 98 °C
Cn1nc(C(F)(F)F)c(CSC2=NOC(C)(C)C2)c1OC(F)F ... 39 to 40 °C

Switching to the query record.
The measured melting point associated with Cn1nc(C(F)(F)F)c(CS(=O)(=O)C2=NOCC2)c1OC(F)F reads 115 to 117 °C
